- Test system: Rattus norvegicus
- EXPERIMENT_DESCRIPTION: Inhibition of the IgE-mediated passive cutaneous anaphylaxis (PCA) reaction in rat after oral administration; NA means inactive at 1 and 10 mg/Kg
- Type: functional, organism-based
Calls of active or inactive are those of the source. The rule behind the calls is not given here.
EXPERIMENTAL_ENDPOINT: ED50

Would you please look over these solved cases?
Nc1nnnn1C(=O)c1cn2c(n1)COc1ccccc1-2 | inactive
O=C(O)c1nc2n(c1CO)-c1ccccc1OC2 | inactive
c1ccc2c(c1)OCc1nc(-c3nn[nH]n3)cn1-2 | inactive
CCOC(=O)c1cn2c(n1)c(C#N)cc1ccccc12 | inactive
COC(=O)c1nc2n(c1CO)-c1ccccc1OC2 | inactive

According to the records, this compound CCOC(=O)c1cn2c(cnc3cc(Cl)c(Cl)cc32)n1 displays ED50 of inactive

According to the records, this compound O=C(Nc1nn[nH]n1)c1cn2c(n1)COc1ccccc1-2 displays ED50 of inactive

According to the records, this compound NC(=O)c1cn2c(ccc3ccccc32)n1 displays ED50 of inactive
